Here the recorded half-life at 1 μM is given for each entry.
- assayProtocol: Stability assay in rabbit aqueous humor
- Format: in vitro ADME
- measurementSetup: 1 μM in rabbit aqueous humor, LC-MS/MS; read-out: t½ rabbits AH

[
  {
    "molecule": "CCCOC(=O)c1cc(-c2cc(C(=O)Nc3ccncc3)ccc2C(C)N)c[nH]1 (centres unmarked) [Compound 169]",
    "half-life at 1 μM": "> 1 h"
  }
]

For the next question, use this molecule.
## Input Recorded half-life at 1 μM of CC(N)c1ccc(C(=O)Nc2ccncc2F)cc1-c1cccc(C(=O)OCC2CCCO2)c1 (centres unmarked) [Compound 46] , please.
## Output > 1 h
